Test system: HCT-116 colon
Procedure Text: NCI tumour cell line growth inhibition, 48 h
TGI values for the molecules below.

Example entries and their recorded answers appear below.
Molecule	Observed Value
CN(C)C(=O)Oc1ccc(-c2cn3cc(NC(=O)c4ccccc4)ccc3n2)cc1	> 100 µM
CC(=O)[O][Hg][c]1ccccc1	0.667 µM
O=C1/C(=C/c2ccc(Cl)cc2)N=C(c2ccccc2)N1c1ccc(S(=O)(=O)Nc2nccs2)cc1	> 100 µM

Given the molecule COc1ccc(-c2ccc(/C=N/n3c(C)nn(CN4CCN(C)CC4)c3=S)o2)c([N+](=O)[O-])c1 , what is its reported TGI?
57.8 µM

Given the molecule Cn1c(=S)c2[nH]c(SCCN3CCCC3)nc2n(C)c1=O , what is its reported TGI?
> 100 µM

Given the molecule Cc1c(C)c(S(=O)(=O)N(CCCN)OCCCN)c(C)c2c1OC(C)(C)C2 , what is its reported TGI?
> 100 µM

Given the molecule C=C1CN(Cc2ccccc2)[C@@H]2CCCCC[C@H](C#N)[C@H]12 , what is its reported TGI?
> 100 µM

Given the molecule COC(=O)[C@@H]1C[C@@H]2c3ccccc3N(S(=O)(=O)c3ccccc3)[C@@H]2N1C(=O)OC , what is its reported TGI?
> 100 µM

Given the molecule CN1CCC23c4c5ccc(O)c4OC2c2[nH]c4ccccc4c2CC3(O)C1C5 (stereo not given) , what is its reported TGI?
> 100 µM

Given the molecule N=C(N)SCc1cccc2c(=O)cc(-c3ccccc3)oc12 , what is its reported TGI?
19.7 µM

###

Tested on: HS 578T breast
Procedure Text: NCI tumour cell line growth inhibition, 48 h
Readout Type: TGI

Given the molecule O=[N+]([O-])c1ccc2ncccc2c1Cl , what is its reported TGI?
> 100 µM

Given the molecule COc1cc(/C=C/c2cc(/C=C/c3ccc(O)c(OC)c3)oc(=O)c2)ccc1O , what is its reported TGI?
> 85.3 µM

###

Tested on: SF-539 CNS
Procedure Text: NCI tumour cell line growth inhibition, 48 h
Readout Type: TGI

Example entries and their recorded answers appear below.
Molecular String	Observed Value
O=C1CCc2c(sc3[nH]c(=S)n(Cc4ccccc4)c(=O)c23)C1	5.61 µM
CCCCCC/C=C\CCCCCCCCCC1=CC(=O)C=C(OC)C1=O	6.74 µM
NNc1[nH]c(=S)[nH]c1C(N)=O	> 100 µM
C=C1C(=O)O[C@H]2[C@H]1CC(=O)/C(C)=C/CC[C@@]1(C)O[C@@H]21	4.6 µM
COc1ccc(-c2cc(-c3cc(OC)c(OC)c(OC)c3)c(C#N)c(N3CCOCC3)n2)cc1O	12.5 µM

Now look at this entry.
For SF-539 CNS, provide TGI of O=[N+]([O-])/C(C(Cl)=C(Cl)Cl)=C(/Sc1ccccc1)N1CCCCC1 please.
> 100 µM

###

TGI values for the molecules below.
Test system: BT-549 breast
Procedure Text: NCI tumour cell line growth inhibition, 48 h
Just the number please, in µM, no unit attached.

Example entries and their recorded answers appear below.
Molecule	Reading Unit	TGI
O=C(O)C1(Cc2cccc(Nc3nccs3)n2)CCC(Oc2cccc(Cl)c2F)CC1 (stereo not given)	µM	32.1
CCCCCC/C=C\CCCCCCCCCC1=CC(=O)C=C(OC)C1=O	µM	13.1
O=C1/C(=C/c2ccccc2)CN(C(=O)OCc2ccccc2)C/C1=C\c1ccccc1	µM	33.2

Given the molecule CC(=O)OC1CC2C(C)(C)C(=O)C=CC2(C)C2CCC3(C)C(c4ccoc4)OC(=O)C4OC43C12C (stereo not given) , what is its reported TGI?
44.4

Given the molecule O=C(OCc1ccc2c(Cl)cc(Cl)c(O)c2n1)c1cc2ccccc2[nH]1 , what is its reported TGI?
0.845

Given the molecule CC1OC(OC2C(O)COC(OC3C(C)OC(OC4C(OC(=O)[C@]56CCC(C)(C)C[C@@H]5C5=CCC7[C@@]8(C)C[C@H](O)[C@H](OC9OC(CO)C(O)C(OC%10OC(CO)C(O)C(O)C%10O)C9O)[C@@](C)(CO)[C@@H]8CC[C@@]7(C)[C@]5(C)CC6)OCC(O)C4O)C(O)C3O)C2O)C(O)C(O)C1O (stereo not given in full) , what is its reported TGI?
40.7

Given the molecule C=C1C(=O)O[C@H]2[C@H]1CC/C(COC(=O)c1ccc(C#N)cc1)=C\CC[C@@]1(C)O[C@@H]21 , what is its reported TGI?
3.15

Given the molecule CN(CCCl)c1ccc(/C=C/C2=[N+](C)c3ccccc3C2(C)C)cc1 , what is its reported TGI?
4.85

Given the molecule CCCCCCCN1C(=O)C(O)(c2ccc(C3(O)C(=O)N(CCCCCCC)c4ccccc43)s2)c2ccccc21 (stereo not given) , what is its reported TGI?
4.12

Given the molecule C#CCOc1cccc(Nc2ncnc3ccc(NC(=O)CCl)cc23)c1 , what is its reported TGI?
10.1

Given the molecule Clc1nc2n(c1/C=C/c1cccs1)CCS2 , what is its reported TGI?
90.4

Given the molecule S=c1sc2nc(Cl)nc(Cl)c2s1 , what is its reported TGI?
24

Given the molecule O=[N+]([O-])c1ccc(Sc2c3ccccc3nc3ccccc23)nc1 , what is its reported TGI?
27.3

Given the molecule c1ccc(C[n+]2cccc(-c3cc4ccccc4[nH]3)c2)cc1 , what is its reported TGI?
36.6

Given the molecule O=C(NC(Nc1ccc(F)c(Cl)c1)(C(F)(F)F)C(F)(F)F)OCc1ccccc1 , what is its reported TGI?
33.6

Given the molecule COc1cc(/C=C/c2cc(/C=C/c3ccc(O)c(OC)c3)oc(=O)c2)ccc1O , what is its reported TGI?
12.2

###

TGI values for the compounds below.
Tested on: NCI-H23 lung
Procedure Text: NCI tumour cell line growth inhibition, 48 h

Example entries and their recorded answers appear below.
Compound	Observed Value
CCCCCCCCCCCCN(O)C(=O)c1ccccc1	52.2 µM
CC(C)C(/C=C/c1ccc(Br)cc1)=N\NC(N)=O	> 100 µM
O=C(NCCCCCCCCNC(=O)c1cccc2ccccc12)c1cccc2ccccc12	> 79.6 µM
c1ccc(-c2nnc(-c3nsc4ccccc34)o2)cc1	> 100 µM
Nc1c(C(=O)Nc2ccccc2F)sc2nc3c(cc12)C(=O)CCC3	> 100 µM

Given the compound C/C=C/C(=O)N1C(=O)OC[C@@H]1c1ccccc1 , what is its reported TGI?
32.8 µM

Given the compound C[C@]12[C@@H]3CC[C@H]1[C@@H](OC(=O)Nc1cc([N+](=O)[O-])cc([N+](=O)[O-])c1)C(=O)N2CC3 , what is its reported TGI?
> 100 µM

Given the compound O=C(Oc1ccccc1Cl)c1ccccc1Nc1ccnc(C(F)(F)F)c1 , what is its reported TGI?
0.248 µM

Given the compound CC1OC(OC2C(O)COC(OC3C(C)OC(OC4C(OC(=O)[C@]56CCC(C)(C)C[C@@H]5C5=CCC7[C@@]8(C)C[C@H](O)[C@H](OC9OC(CO)C(O)C(OC%10OC(CO)C(O)C(O)C%10O)C9O)[C@@](C)(CO)[C@@H]8CC[C@@]7(C)[C@]5(C)CC6)OCC(O)C4O)C(O)C3O)C2O)C(O)C(O)C1O (stereo partly drawn) , what is its reported TGI?
31 µM

Given the compound CN(C)c1n/c(=N/c2ncn[nH]2)ss1 , what is its reported TGI?
> 100 µM

Given the compound C=CCOC(=O)[C@@H]1C[C@@H](OC(C)(C)C)CN1C(=O)[C@@H]1[C@H]2OC(C)(C)O[C@H]2CN1C(=O)OCC1c2ccccc2-c2ccccc21 , what is its reported TGI?
33.9 µM

Given the compound CCCCn1sc(=O)n(Cc2ccc(CNC(=O)OCc3ccc4c(Br)cc(Br)c(O)c4n3)cc2)c1=O , what is its reported TGI?
> 100 µM

Given the compound CCCCCC/C=C\CCCCCCCCCC1=CC(=O)C=C(OC)C1=O , what is its reported TGI?
12 µM

Given the compound COc1ccc(-c2c(-c3cc(OC)c4c(c3)OCO4)noc2N)cc1 , what is its reported TGI?
20.9 µM

Given the compound Cc1nc(N)sc1C(=O)Nc1cc(C(=O)NCCCN(C)C)n(C)c1 , what is its reported TGI?
> 100 µM

Given the compound CCCCC(=O)Oc1ccc2c(C)cc(=O)oc2c1 , what is its reported TGI?
> 100 µM

Given the compound COc1ccc(/C(=N/NC(N)=O)C(c2ccc(OC)cc2)C2C(=O)Oc3ccccc32)cc1 (stereo not drawn) , what is its reported TGI?
> 100 µM

Given the compound NC(N)=NCCCC(NC(=O)OCCCCCCn1ccc(N)nc1=O)C(=O)O (stereo not drawn) , what is its reported TGI?
> 100 µM

Given the compound Cc1ccc(S(=O)(=O)NC(=O)Nc2ccc(S(N)(=O)=O)cc2S(N)(=O)=O)cc1 , what is its reported TGI?
> 100 µM

Attribution: PubChem BioAssay (NCI)
